system tested: HLA-A*02:01 (Homo sapiens, UniProt P04439, D140Y/D185E/D98H/E176V/E277Q/G131W/G231S/I119V/I121R/I166T/I218V/L300P/L318F/N151K/N90K/P208A/P217A/Q86G/Q94H/R138H/R169H/T345S)
protocol: MHC binding assay (UV-ligand exchange, beta2m ELISA)
test conditions: binding to HLA-A*02:01 ranged by peptide exchange yield (UV-ligand exchange, β2m ELISA)
measured property: Peptide exchange

Solved cases below.
565 (ALQETPTSV; listed as Homo sapiens) [compound 565]	“++” (≥20% = ++)
146 (SLATAGDGLIEL; listed as Homo sapiens) [compound 146]	“++” (≥20% = ++)
569 (KLVDRTWTL; listed as Homo sapiens) [compound 569]	“+++” (≥50 = +++)
176 (YLMEGSYNKVFL; listed as Homo sapiens) [compound 176]	“++” (≥20% = ++)

Query :: May I ask what Peptide exchange has been recorded for 458 (SLIDKLYNI; listed as Homo sapiens) [compound 458] ?
Result :: “++” (≥20% = ++)

Query :: May I ask what Peptide exchange has been recorded for 567 (SLLPLDDIVRV; listed as Homo sapiens) [compound 567] ?
Result :: “+++” (≥50 = +++)

Query :: May I ask what Peptide exchange has been recorded for 429 (GLVNDLARV; listed as Homo sapiens) [compound 429] ?
Result :: “++” (≥20% = ++)

Query :: May I ask what Peptide exchange has been recorded for 244 (SLFGGTEITI; listed as Homo sapiens) [compound 244] ?
Result :: “+++” (≥50 = +++)

* * *

system tested: HLA-A*02:01 (Homo sapiens, UniProt P04439, D140Y/D185E/D98H/E176V/E277Q/G131W/G231S/I119V/I121R/I166T/I218V/L300P/L318F/N151K/N90K/P208A/P217A/Q86G/Q94H/R138H/R169H/T345S)
protocol: MHC binding assay (UV-ligand exchange, beta2m ELISA)
test conditions: binding to HLA-A*02:01 ranged by peptide exchange yield (UV-ligand exchange, β2m ELISA)
measured property: Peptide exchange

Solved cases below.
71 (GILARIASV; listed as Homo sapiens) [compound 71]	“+++” (≥50 = +++)
618 (VLFDSESIGIYV; listed as Homo sapiens) [compound 618]	“+++” (≥50 = +++)
133 (KVLSNIHTV; listed as Homo sapiens) [compound 133]	“++” (≥20% = ++)
252 (LLIGTDVSL; listed as Homo sapiens) [compound 252]	“+++” (≥50 = +++)

For the next question, use this substance.
Query :: May I ask what Peptide exchange has been recorded for 18 (YLVAKLVEV; listed as Homo sapiens) [compound 18] ?
Result :: “++” (≥20% = ++)

* * *

system tested: HLA-A*02:01 (Homo sapiens, UniProt P04439, D140Y/D185E/D98H/E176V/E277Q/G131W/G231S/I119V/I121R/I166T/I218V/L300P/L318F/N151K/N90K/P208A/P217A/Q86G/Q94H/R138H/R169H/T345S)
protocol: MHC binding assay (UV-ligand exchange, beta2m ELISA)
test conditions: binding to HLA-A*02:01 ranged by peptide exchange yield (UV-ligand exchange, β2m ELISA)
measured property: Peptide exchange

Solved cases below.
141 (YLDFSNNRL; listed as Homo sapiens) [compound 141]	“++” (≥20% = ++)
131 (FVPPVTVFPSL; listed as Homo sapiens) [compound 131]	“++” (≥20% = ++)
119 (FLYIGDIVSL; listed as Homo sapiens) [compound 119]	“++++” (≥75% = ++++)
318 (GLINTGVLSV; listed as Homo sapiens) [compound 318]	“++” (≥20% = ++)
236 (GLLEAKVSL; listed as Homo sapiens) [compound 236]	“+++” (≥50 = +++)
143 (LLLDITPEI; listed as Homo sapiens) [compound 143]	“++++” (≥75% = ++++)
498 (KLWTGGLDNTV; listed as Homo sapiens) [compound 498]	“+++” (≥50 = +++)
340 (ALLSMTFPL; listed as Homo sapiens) [compound 340]	“++++” (≥75% = ++++)

For the next question, use this substance.
Query :: May I ask what Peptide exchange has been recorded for 255 (VLASYNLTV; listed as Homo sapiens) [compound 255] ?
Result :: “+++” (≥50 = +++)
